The values you see were collected from patent US20250215104A1.

# test.system: T1, human soluble urokinase plasminogen activator receptor (hsuPAR) (human, UniProt Q03405 23-303, limits assumed)
# T1 construct: also called human suPAR; rhuPAR-His
# T1 sequence (Q03405 23-303 limits assumed): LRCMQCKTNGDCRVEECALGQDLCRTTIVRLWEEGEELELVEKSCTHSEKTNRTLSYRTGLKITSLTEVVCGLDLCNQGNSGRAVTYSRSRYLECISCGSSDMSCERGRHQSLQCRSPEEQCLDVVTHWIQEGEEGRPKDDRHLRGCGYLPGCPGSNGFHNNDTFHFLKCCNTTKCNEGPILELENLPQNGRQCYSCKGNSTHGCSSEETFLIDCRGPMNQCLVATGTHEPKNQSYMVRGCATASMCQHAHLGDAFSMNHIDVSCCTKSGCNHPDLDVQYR
# method.description: off-rate screen of scFv clones (kdis), Octet BLI
In this section, each of the binders is paired with its reported koff.
Respond with the bare value in s⁻¹.

Example entries begin here.
binder	koff, s⁻¹
suPAR_DB04_C05 (scFv, V domains shown, scFv clone from phage display) VH: QVQLVQSGAEVKKPGASVKVSCKASGHTLNSYYMHWVRQAPGQGLEWMGWIDHENGNTIYDQKFQGRVTMTRDTSTSTVYMELSSLRSEDTAVYYCARGYDVDWFVYWGQGTLVTVSS VL: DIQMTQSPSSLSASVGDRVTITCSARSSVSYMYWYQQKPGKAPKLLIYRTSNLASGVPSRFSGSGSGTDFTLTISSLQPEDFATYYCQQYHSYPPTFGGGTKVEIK	0.00245
suPAR_DB04_F09 (scFv, V domains shown, scFv clone from phage display) VH: QVQLVQSGAEVKKPGASVKVSCKASGYTFTNYYFHWVRQAPGQGLEWMGWIDHENGNTSYDQKFQGRVTMTRDTSTSTVYMELSSLRSEDTAVYYCARGYDVDWFVYWGQGTLVTVSS VL: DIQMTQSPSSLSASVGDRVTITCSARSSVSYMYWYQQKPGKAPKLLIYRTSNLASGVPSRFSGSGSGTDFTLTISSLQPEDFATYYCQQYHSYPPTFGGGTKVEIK	0.00462
suPAR_DB04_G12 (scFv, V domains shown, scFv clone from phage display) VH: QVQLVQSGAEVKKPGASVKVSCKASGYTFSDYYMHWVRQAPGQGLEWMGWIDHENGNTSYAQKFQGRVTMTRDTSTSTVYMELSSLRSEDTAVYYCARGYDVDWFVYWGQGTLVTVSS VL: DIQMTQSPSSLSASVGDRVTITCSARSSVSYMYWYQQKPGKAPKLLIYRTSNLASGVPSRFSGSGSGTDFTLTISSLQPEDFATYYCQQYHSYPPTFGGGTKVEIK	0.00528
suPAR_DB04_C07 (scFv, V domains shown, scFv clone from phage display) VH: QVQLVQSGAEVKKPGASVKVSCKASGYTFTSYYMHWVRQAPGQGLEWMGWIDHSNGNTIYDQKFQGRVTMTRDTSTSTVYMELSSLRSEDTAVYYCARGDDVDWFVYWGQGTLVTVSS VL: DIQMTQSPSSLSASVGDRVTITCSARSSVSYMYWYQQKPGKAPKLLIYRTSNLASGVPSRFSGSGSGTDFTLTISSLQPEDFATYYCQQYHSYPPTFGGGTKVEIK	0.0031

Could you now look at the following binder, please?
State its koff for this binder: suPAR_DB04_E09 (scFv, V domains shown, scFv clone from phage display) VH: QVQLVQSGAEVKKPGASVKVSCKASGDTFTDYYIHWVRQAPGQGLEWMGWIDHENGSTSYDQKFQGRVTMTRDTSTSTVYMELSSLRSEDTAVYYCARGYDVDWFVYWGQGTLVTVSS VL: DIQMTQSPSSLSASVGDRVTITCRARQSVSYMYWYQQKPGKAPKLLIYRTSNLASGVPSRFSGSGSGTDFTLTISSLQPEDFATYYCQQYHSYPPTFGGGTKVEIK
0.00598
